The reported measurements were obtained from patent US12139471B2.

Biological target: NLRP3 inflammasome (Homo sapiens)
Construct: host or cells: THP-1 cells, PMA-differentiated
Assay: IL-1β secretion assay (nigericin-activated, PMA-differentiated THP-1 cells, HTRF)
Format: cell-based
Conditions: PMA-differentiated THP-1 cells; compound 1 hour, then 15 μM nigericin, 3 hours; IL-1β by HTRF; read-out: IL-1β IC50
The entries below are paired with their reported IC50.
parameter: IC50 (nM)

compound="Cc1cc(N[C@H]2C[C@@](C)(O)C2)nnc1-c1ccc(OC(F)(F)F)cc1O [Ex 81]" target_under_test="NLRP3 inflammasome (Homo sapiens)" parameter=IC50 readout_number=130
compound="Cc1cc(C(F)(F)F)cc(O)c1-c1ccc(N[C@@H]2CCC[C@H](O)C2)nn1 [Ex 3]" target_under_test="NLRP3 inflammasome (Homo sapiens)" parameter=IC50 readout_number=25.5
compound="Cc1cc(C(F)(F)F)cc(O)c1-c1ccc(NC2CCC3CCC2N3C)nn1 (single isomer, unassigned) [Ex 85a]" target_under_test="NLRP3 inflammasome (Homo sapiens)" parameter=IC50 readout_number=148
compound="Cc1cc(C(F)(F)F)cc(O)c1-c1ccc(N[C@@H]2CCC[C@H]2O)nn1 (relative stereo) [Ex 24]" target_under_test="NLRP3 inflammasome (Homo sapiens)" parameter=IC50 readout_number=120
compound="Cc1ncccc1CNc1ccc(-c2c(O)cc(C(F)(F)F)cc2Cl)nn1 [Ex 34]" target_under_test="NLRP3 inflammasome (Homo sapiens)" parameter=IC50 readout_number=496
compound="Cc1cc(C(F)(F)F)cc(O)c1-c1ccc(NC[C@@H]2C[C@H](F)CN2)nn1 [Ex 75]" target_under_test="NLRP3 inflammasome (Homo sapiens)" parameter=IC50 readout_number=18.3
compound="Cc1cc(C(F)(F)F)cc(O)c1-c1cc(C(F)(F)F)c(NCCO)nn1 [Ex 26]" target_under_test="NLRP3 inflammasome (Homo sapiens)" parameter=IC50 readout_number=165
compound="Cc1cc(-c2c(C)cc(C(F)(F)F)cc2O)nnc1N[C@H]1C[C@@](C)(O)C1 [Ex 54]" target_under_test="NLRP3 inflammasome (Homo sapiens)" parameter=IC50 readout_number=11.8
compound="Cc1cc(C(F)(F)F)cc(O)c1-c1ccc(NC[C@@H](O)C(C)C)nn1 (single isomer, unassigned) [Ex 90a]" target_under_test="NLRP3 inflammasome (Homo sapiens)" parameter=IC50 readout_number=64.2
compound="Cc1cc(C(F)(F)F)cc(O)c1-c1ccc(NC[C@H]2CCCN2)nn1 [Ex 14]" target_under_test="NLRP3 inflammasome (Homo sapiens)" parameter=IC50 readout_number=85.7
compound="Cc1cc(C(F)(F)F)cc(O)c1-c1ccc(N[C@H]2C[C@@](C)(O)C2)nn1 [Ex 2]" target_under_test="NLRP3 inflammasome (Homo sapiens)" parameter=IC50 readout_number=10.2
compound="Cc1cc(C(F)(F)F)cc(O)c1-c1ccc(NCC(C)(C)N(C)C)nn1 [Ex 16]" target_under_test="NLRP3 inflammasome (Homo sapiens)" parameter=IC50 readout_number=36.3
compound="Cc1cc(N[C@H]2C[C@@](C)(O)C2)nnc1-c1ccc(C(F)(F)F)cc1O [Ex 55]" target_under_test="NLRP3 inflammasome (Homo sapiens)" parameter=IC50 readout_number=45.8
compound="Cc1cc(C(F)(F)F)cc(O)c1-c1ccc(NC[C@@H]2C[C@@H](F)CN2)nn1 [Ex 76]" target_under_test="NLRP3 inflammasome (Homo sapiens)" parameter=IC50 readout_number=89.7
compound="Cc1cc(C(F)(F)F)cc(O)c1-c1ccc(NCC2(O)CCCC2)nn1 [Ex 98]" target_under_test="NLRP3 inflammasome (Homo sapiens)" parameter=IC50 readout_number=115
compound="Cc1cc(C(F)(F)F)cc(O)c1-c1ccc(NC[C@@H]2CCCCN2)nn1 [Ex 21]" target_under_test="NLRP3 inflammasome (Homo sapiens)" parameter=IC50 readout_number=48.4
compound="Cc1cc(-c2c(C)cc(C(F)(F)F)cc2O)nnc1NC1CCC(=O)N(C)C1 (stereo not shown) [Ex 99]" target_under_test="NLRP3 inflammasome (Homo sapiens)" parameter=IC50 readout_number=75
compound="Cc1cc(C(F)(F)F)cc(O)c1-c1ccc(N[C@H]2CCCN3CCC[C@@H]23)nn1 (single isomer, unassigned) [Ex 83b]" target_under_test="NLRP3 inflammasome (Homo sapiens)" parameter=IC50 readout_number=69.4
compound="Cc1cc(C(F)(F)F)cc(O)c1-c1ccc(NC[C@@H]2CC(F)(F)CN2)nn1 [Ex 22]" target_under_test="NLRP3 inflammasome (Homo sapiens)" parameter=IC50 readout_number=80.7
compound="Oc1cc(C(F)(F)F)cc(Cl)c1-c1ccc(N[C@H]2C[C@@H](O)C2)nn1 [Ex 31]" target_under_test="NLRP3 inflammasome (Homo sapiens)" parameter=IC50 readout_number=167
compound="Cc1cc(C(F)(F)F)cc(O)c1-c1ccc(NC[C@H]2CCCCN2CCO)nn1 (single isomer, unassigned) [Ex 84a]" target_under_test="NLRP3 inflammasome (Homo sapiens)" parameter=IC50 readout_number=42.5
compound="Cc1cc(-c2c(C)cc(C(F)(F)F)cc2O)nnc1N[C@@H]1CCCN(C)C1=O [Ex 102]" target_under_test="NLRP3 inflammasome (Homo sapiens)" parameter=IC50 readout_number=49
compound="Cc1cc(C(F)(F)F)cc(O)c1-c1ccc(NCC(C)(C)O)nn1 [Ex 15]" target_under_test="NLRP3 inflammasome (Homo sapiens)" parameter=IC50 readout_number=85.9
compound="Cc1cc(C(F)(F)F)cc(O)c1-c1ccc(N[C@@H]2CCC[C@@H](O)C2)nn1 [Ex 58]" target_under_test="NLRP3 inflammasome (Homo sapiens)" parameter=IC50 readout_number=58.4
compound="Cc1cc(C(F)(F)F)cc(O)c1-c1ccc(NC2(C)CCCN(C)C2)nn1 (stereo not shown) [Ex 52]" target_under_test="NLRP3 inflammasome (Homo sapiens)" parameter=IC50 readout_number=186
compound="Cc1cc(C(F)(F)F)cc(O)c1-c1ccc(N[C@@H]2CCCN3CCC[C@H]23)nn1 (single isomer, unassigned) [Ex 83a]" target_under_test="NLRP3 inflammasome (Homo sapiens)" parameter=IC50 readout_number=0.8
compound="Cc1cc(-c2c(C)cc(C(F)(F)F)cc2O)nnc1NCC(C)(C)O [Ex 72]" target_under_test="NLRP3 inflammasome (Homo sapiens)" parameter=IC50 readout_number=44.9
compound="Cc1cc(C(F)(F)F)cc(O)c1-c1ccc(NC(C)(C)CO)nn1 [Ex 79]" target_under_test="NLRP3 inflammasome (Homo sapiens)" parameter=IC50 readout_number=370
compound="C[C@]1(O)C[C@@H](Nc2cc(C(F)(F)F)c(-c3ccc(Cl)cc3O)nn2)C1 [Ex 69]" target_under_test="NLRP3 inflammasome (Homo sapiens)" parameter=IC50 readout_number=431
compound="Cc1cc(C(F)(F)F)cc(O)c1-c1ccc(NC[C@](C)(O)C(F)(F)F)nn1 [Ex 78]" target_under_test="NLRP3 inflammasome (Homo sapiens)" parameter=IC50 readout_number=198
compound="Cc1cc(C(F)(F)F)cc(O)c1-c1ccc(NCC(C)(C)N)nn1 [Ex 29]" target_under_test="NLRP3 inflammasome (Homo sapiens)" parameter=IC50 readout_number=169
compound="Cc1cc(C(F)(F)F)cc(O)c1-c1ccc(NC[C@](C)(O)CO)nn1 (single isomer, unassigned) [Ex 88a]" target_under_test="NLRP3 inflammasome (Homo sapiens)" parameter=IC50 readout_number=62.3
compound="Cc1cc(C(F)(F)F)cc(O)c1-c1ccc(NC[C@H]2CCCCN2)nn1 [Ex 20]" target_under_test="NLRP3 inflammasome (Homo sapiens)" parameter=IC50 readout_number=82.3
compound="Cc1cc(C(F)(F)F)cc(O)c1-c1ccc(N[C@H]2C[C@](O)(C(F)(F)F)C2)nn1 [Ex 67]" target_under_test="NLRP3 inflammasome (Homo sapiens)" parameter=IC50 readout_number=40.1

* * *

Biological target: NLRP3 inflammasome (Homo sapiens, UniProt Q96P20)
Construct: host or cells: THP-1 cells, PMA-differentiated
Sequence (Q96P20 whole entry): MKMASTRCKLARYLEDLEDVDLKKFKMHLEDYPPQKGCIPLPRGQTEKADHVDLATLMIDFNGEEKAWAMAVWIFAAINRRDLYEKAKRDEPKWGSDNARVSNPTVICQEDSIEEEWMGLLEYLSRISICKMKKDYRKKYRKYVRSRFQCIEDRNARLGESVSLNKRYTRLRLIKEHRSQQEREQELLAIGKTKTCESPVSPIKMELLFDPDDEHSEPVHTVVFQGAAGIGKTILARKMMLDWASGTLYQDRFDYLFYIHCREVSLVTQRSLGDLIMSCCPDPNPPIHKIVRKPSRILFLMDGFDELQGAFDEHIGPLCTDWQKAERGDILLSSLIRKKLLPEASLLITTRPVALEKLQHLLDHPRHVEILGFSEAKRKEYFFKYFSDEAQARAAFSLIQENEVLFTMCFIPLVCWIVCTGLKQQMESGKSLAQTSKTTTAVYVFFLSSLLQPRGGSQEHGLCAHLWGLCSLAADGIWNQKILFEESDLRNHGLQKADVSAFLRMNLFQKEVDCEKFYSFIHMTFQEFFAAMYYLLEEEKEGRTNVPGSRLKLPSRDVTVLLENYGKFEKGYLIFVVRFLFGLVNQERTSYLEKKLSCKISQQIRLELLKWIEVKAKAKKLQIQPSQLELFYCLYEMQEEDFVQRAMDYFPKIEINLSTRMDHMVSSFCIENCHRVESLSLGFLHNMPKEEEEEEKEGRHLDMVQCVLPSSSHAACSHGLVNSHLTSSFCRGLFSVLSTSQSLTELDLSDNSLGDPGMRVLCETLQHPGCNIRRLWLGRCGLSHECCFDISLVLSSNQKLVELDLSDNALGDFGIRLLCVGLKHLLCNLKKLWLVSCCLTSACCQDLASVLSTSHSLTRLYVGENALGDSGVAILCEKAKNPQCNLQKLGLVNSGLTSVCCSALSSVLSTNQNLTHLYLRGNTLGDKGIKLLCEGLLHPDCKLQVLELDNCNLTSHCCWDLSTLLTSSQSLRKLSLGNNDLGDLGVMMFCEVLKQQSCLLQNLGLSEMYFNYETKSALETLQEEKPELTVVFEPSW
Assay: IL-1β secretion assay (nigericin-activated, PMA-differentiated THP-1 cells, HTRF)
Format: cell-based
Conditions: PMA-differentiated THP-1 cells; compound 1 hour, then 15 μM nigericin, 3 hours; IL-1β by HTRF; read-out: IL-1β IC50
pIC50: −log10 of the molar value.
Short version: pIC50 at least 7 is Met, less is Not met.

compound="Cc1cc(C(F)(F)F)cc(O)c1-c1ccc(N[C@@H]2CC[C@@H](O)[C@H]2O)nn1 (single isomer, unassigned) [Ex 89b]" group="Not met"
compound=Cc1cc(C(F)(F)F)cc(O)c1-c1ccc(Nc2cncnc2)nn1 group="Not met"
compound=Cc1cc(C(F)(F)F)cc(O)c1-c1ccc(N[C@H]2CCC[C@H](O)C2)nn1 group="Not met"
compound=Oc1cc(C(F)(F)F)cc(Cl)c1-c1ccc(N[C@H]2C[C@H](O)C2)nn1 group="Not met"
compound=CC(C)(O)CNc1ccc(-c2c(O)cc(C(F)(F)F)cc2Cl)nn1 group="Not met"
compound=Cc1ncccc1CNc1ccc(-c2c(O)cc(Cl)cc2C(F)(F)F)nn1 group="Not met"
compound="Cc1cc(C(F)(F)F)cc(O)c1-c1ccc(NC[C@@](C)(O)CO)nn1 (single isomer, unassigned) [Ex 88b]" group=Met
compound="Cc1cc(C(F)(F)F)cc(O)c1-c1ccc(NC2CCC3CCC2N3CCO)nn1 (single isomer, unassigned) [Ex 86a]" group="Not met"
compound="Cc1cc(C(F)(F)F)cc(O)c1-c1ccc(N[C@H]2CC[C@H](O)[C@@H]2O)nn1 (single isomer, unassigned) [Ex 89a]" group=Met
